From: the RNAGym collection of RNA variant scans (doi:10.1126/science.aae0568)

B1: tRNA (parent)
chain: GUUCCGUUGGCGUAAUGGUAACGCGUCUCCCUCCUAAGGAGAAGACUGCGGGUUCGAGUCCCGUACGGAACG

# Variants of: B1
# ASSAY NAME: yeast fitness relative to wild type (ratio to wild type); higher = fitter; tRNA-Arg(CCU), competitive growth, 37 C, YPD
Variants at the floor of the assay were thinned out.
The threshold is inclusive: yeast fitness of exactly 0.6 counts as yes (1); values below receive no (0).

Worked examples, 6 variants total:
| VARIANT ANNOTATION | GROUP LABEL |
| --- | --- |
| C5G U8C C27G C33G U35A | no (0) |
| G12A U28A U54C | no (0) |
| C46U U54C G56A | yes (1) |
| U28G C30U | yes (1) |
| A21C A42G A69C A70G | no (0) |
| C5U C11A A43U C66U | yes (1) |

For this variant, is measured yeast fitness 0.6 or higher? G9A A36U G39A G52C
no (0)

For this variant, is measured yeast fitness 0.6 or higher? G9A A20U C34G A42U G68C
no (0)

For this variant, is measured yeast fitness 0.6 or higher? U3C A36U C62U
no (0)

For this variant, is measured yeast fitness 0.6 or higher? A15C U26G U28C A37G G41A C49G C62U
no (0)

For this variant, is measured yeast fitness 0.6 or higher? G38A G68A
yes (1)

For this variant, is measured yeast fitness 0.6 or higher? U13A A14C C22A C31A A37G C55U A57G
no (0)

For this variant, is measured yeast fitness 0.6 or higher? U7A C11G C29U
no (0)
